Entries and their PET hydrolysis values follow.
assayMethodText: PET hydrolysis, aromatic products released after 48 h (umol product/mg enzyme); higher = more PET depolymerization activity
conditionInfo: substrate: cryPow; 40 °C; pH 5.5
experimentalEndpoint: PET hydrolysis

INSERT INTO measurements (sequenceentry, result) VALUES
  ('CAAGGPGASPGLQPTIASLSVDGAFKVMTYTDIPDVPEFGDATVYYPADTPTPIGGVAISPGWTEAQRHINWWGPRLASHGYAVLVLDTNDARRDQPEERAEALIAAVRILRGENDRAESPLQGRVDTGKMAIMGHSMGGGGTLIAANKYPDEIQAAIPFTPWQPDGDFGQITAPTLVMAGSADRVAGVADHAWPHYQSIPETTTKVFMEVDGGNHFIADTRRGTDLGTIGRYGIAWLKLYLDGDERYRSFIYGAEAEVDREKFSRYLTSP [TEP119]', '< 3'),
  ('ATTAAAPAAAVRADSPYQRGPAPTEASVTAARGPFAIAQVTVPAGSGTGFNKGTIYYPTDTGQGTFGGVAVMPGFTSPQSVIQWLGPRLASQGFLVFTLDSLSLVDFPTARSQQLLAALDYLATRSTVRTRLDPNRLAVMGHSMGGGASLWAAQNRPSLKASVPLAPWETDTTWQGVRVPTMIIGGQADTVAPPATMAIPDYTSMTSAPEKAYLELRNGGHGAPATESPTVAKYALSWLKRFVDLDTRYDQFLCPAPAPTTAISQYRDTCPNG [DP058]', '< 3'),
  ('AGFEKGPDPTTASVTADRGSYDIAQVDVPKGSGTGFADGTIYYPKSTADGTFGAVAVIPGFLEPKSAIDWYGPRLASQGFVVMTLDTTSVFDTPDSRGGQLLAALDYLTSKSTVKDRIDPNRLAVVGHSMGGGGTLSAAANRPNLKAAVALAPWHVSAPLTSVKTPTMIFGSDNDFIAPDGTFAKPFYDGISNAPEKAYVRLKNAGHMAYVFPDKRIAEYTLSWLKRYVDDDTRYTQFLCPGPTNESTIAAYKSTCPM [DP093]', 4),
  ('APNAAIAAAPRVAPAANPYERGPAPTEESVKAEKGPFDIAQMPVPGGAGVFGGGTIWYPKDEAGPFGAVVVSPGFMTLEPLIQWYGRTLASHGFVVMTMATITPIDPPFSRGDELRSALDYLVTKSTVKDKIDPTRTALMGHSMGGGGTLDAASKLPDLKAAIPLAPWNLDYAPPAKIKAPTLIIGADNDPIAPTAAFADPFYAALTTQNRAYLKLKNAGHTFSFLGYNPTITKYTVSWLKRFVDNDTRYDQFLCPIPAASDTVAAYQGTCPLT [DP091]', '< 3'),
  ('DQIGQAPTASNITGDGSFAVTSSAVSGQTGFGGGTVYYPTQTGTYPVVAIMPGFLELWDAIKWMGPRLASWGYVVVGVNPNSVFDLPDSRGSQLLAALNWAVGSAPSAVQSRADGTRRGVVGYSMGGGGTLEALSRDTSGKVLAGVAFSPWDTNQNWSTVRQPEFIVGAQNDTVAPPAQHAIPFYNSLAGPKTYVELAGADHLWPTSDNPTGSRAMVSWLKRWLNSDSRFTPFTCGFTGSAISASMSNAC [ESM047]', 55),
  ('ADNPYERGPNPTESLIEAARGPFATSQTTVSSLSVTGFGGGVIYYPTDTSQGTFGGIAISPGYTAAWSSLDWLGPRLASHGFVVIGIETNTRLDQPASRGDQLLAALDYLTQRSSVRSRVDATRLAVAGHSMGGGGSLEAAKDRTSLKAAIPLAPWNTDKTWPEVRTPTLIIGGESDTVAPVSSHSIPFYTSLTSAREKAYLELDNASHFFPQTSNTTMAKYMISWMKRYIDNDTRYEQFLCPGPSTGLLSGISDWRQTCPGS [TEP073]', '< 3'),
  ('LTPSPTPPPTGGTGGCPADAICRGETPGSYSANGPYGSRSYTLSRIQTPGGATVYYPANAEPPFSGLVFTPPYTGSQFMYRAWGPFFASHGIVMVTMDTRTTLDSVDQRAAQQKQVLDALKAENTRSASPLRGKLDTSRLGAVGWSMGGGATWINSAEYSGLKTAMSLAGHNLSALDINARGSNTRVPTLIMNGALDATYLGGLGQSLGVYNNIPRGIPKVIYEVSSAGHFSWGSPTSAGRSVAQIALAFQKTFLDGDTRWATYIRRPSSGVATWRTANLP [ESM175]', '< 3'),
  ('ADNPHQRGPNPTQASVAASRGTFATSETSVGGGNGFGGAKIYYPTDTSQGKFAALAVSPGYTATWAAEGAWMGHWLASFGFVIIGIDTISRTDWDVARGDQLLAALDYLTQRSSVRDRVDASRVGVMGHSMGGGGAISAGLKRPSLKVVIGNAPYSASQNLTNMRVPVALLAGQRDTTVTPATTNSYYNQVPATTEKMYLELTNAPHSFPTSNNSVMTRKVIPWMKIFLDQDTRYQQFLCPLLDNTGIRTYRSSCPLIGDPMPPADTYRLAGAASGKCADVEGRSQANGAKLLLWTCNGQTNQRWTQTATGELRVYDNPKCVEAGTSAQGTRVTINACNGGNSQKWTVNANGTVTNAVSGRCLDAAGTADNSPIVVNTCTGAGSQNWSKRS [TEP049]', '< 3'),
  ('ADQRGPDPTVQSIEAARGPFATSTSRVSSLVSGFGGGTIYYPTDTSQGRFGGVVIAPGYTAGESSIAWLGPRLASQGFVVFTIDTLTRVDQPASRGRQLLAAADYLTQRSDVADRVDPARLAVMGHSMGGGGTLEAAKSRPGLKAIIPLTPWNLDKTWPEITTPTLIFGAQNDSVASVVTHARPFYQSLPATTPRSYLELRGASHFAPNLSNTTIAKYSIAWLKRFVDDDQRYTQFLCPAPADTALSDVRTSCPF [TEP091]', 5),
  ('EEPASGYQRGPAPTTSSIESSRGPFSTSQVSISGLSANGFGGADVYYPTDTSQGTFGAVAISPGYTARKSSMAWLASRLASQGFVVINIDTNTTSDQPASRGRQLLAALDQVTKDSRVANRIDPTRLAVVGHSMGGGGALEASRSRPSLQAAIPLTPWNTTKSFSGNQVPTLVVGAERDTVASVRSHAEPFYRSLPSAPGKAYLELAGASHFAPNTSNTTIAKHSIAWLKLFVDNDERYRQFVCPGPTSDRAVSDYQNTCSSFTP [DP053]', '< 3');

----------
Each record here notes measured purified protein yield per well.
assayMethodText: purified protein yield per well (BCA); higher = higher soluble expression
experimentalEndpoint: purified protein yield per well (µg)

INSERT INTO assay_data (sequenceentry, experimentalendpoint, measurementqualifier, result) VALUES
  ('MGPWLASFGFVVLGIETNSRTDGADARATQLLAGLDYLTRTSPVRSRVDPNRLSVMGHSAGGAGTLLAALRRPSLRTAVGLAPGTPGNNLNMSTTQVPTLLLSGQNDGTVTPSYVQGIYNTLPAGVEHAWAELAGNDHLSFTRSNPTEMRLLIPWLKIFLDYDTRYTQFLCPLSNSTGVSRYSSTCPLVPPGGPTVPPTTTPPPTTPPPTTPPTTPPPTTPPPTTPPPGTACTATYRTIGSWSGGFQGEVTVTAGSAAVDGWTARWQLASGQGISQVWNGTLSTSGTTVTVRNADYNGTLAPGTSTTFGFLGTGTPNSPSPTCTSP [ESM008]', 'purified protein yield per well', '<', 25),
  ('DGYERGPDPTPTRLLGNGSFSVSTTSVSSLVLGFGGGTIYYPTSTSEGTFGGVVLSPGFTATSGSYAGVARRVASHGFVVLVIDTNTIYDQPDSRGRQILDAVDYLTEDAPSAVASRLDESRIAVSGHSMGGGGTLYAADNRTSVIKTAVALQPWHTDKTWPGVDIPTMIIGAENDAIAPVSSHSIPFYASLSGAPEKAYGEVNNAGHLIANTNDDWQGRLFVSWLKRYLDEDLRYEAFLCPAPSSISLSDYRDTCPG [DP030]', 'purified protein yield per well', '<', 25),
  ('ADQRGPDPTVQSIEAARGPFATSTSRVSSLVSGFGGGTIYYPTDTSQGRFGGVVIAPGYTAGESSIAWLGPRLASQGFVVFTIDTLTRVDQPASRGRQLLAAADYLTQRSDVADRVDPARLAVMGHSMGGGGTLEAAKSRPGLKAIIPLTPWNLDKTWPEITTPTLIFGAQNDSVASVVTHARPFYQSLPATTPRSYLELRGASHFAPNLSNTTIAKYSIAWLKRFVDDDQRYTQFLCPAPADTALSDVRTSCPF [TEP091]', 'purified protein yield per well', '=', 36.2),
  ('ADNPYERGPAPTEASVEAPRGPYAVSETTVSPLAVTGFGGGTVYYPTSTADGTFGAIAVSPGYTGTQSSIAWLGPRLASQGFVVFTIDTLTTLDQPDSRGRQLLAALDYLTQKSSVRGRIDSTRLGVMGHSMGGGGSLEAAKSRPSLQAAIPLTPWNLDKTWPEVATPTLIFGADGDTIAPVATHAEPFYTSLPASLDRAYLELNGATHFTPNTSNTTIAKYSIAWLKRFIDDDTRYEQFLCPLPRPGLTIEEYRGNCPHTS [TEP117]', 'purified protein yield per well', '=', 202),
  ('CESRRGPDPTRVSVESTAGPFAIATTTVSSGNGFGGGTIYYPTSTAEGRFGGVAIAPGFTKTQSSIAWYGPRLASQGFVVFTIDTNSGLDFPASRGDQLLAALDFLTSSSSVKSRVDANRLAVMGWSMGGGGALEAAKDRPALKAAIPLAGWNTTTEWSSVTVPTLVVACENDSTAPVASHSRPFYDSLTSAQERAFVEMAGAPHGCVTSPTTAVARWTISWLKRFVDGDTRYTQFLCPPPADSTVSTQLTSCPM [TEP177]', 'purified protein yield per well', '<', 25),
  ('MVSGTATATPAATAAHPVRAAANPYERGPAPTVASVEAPLGPYAVSRITVARSSVSGFGGGTVHYPTSTADGTFGAVAVSPGFTGTQSSIAWYGPRLASQGFVVLTIDTLTGLDQPASRGRQLLAALDYLTGESAVRGRIDRTRLGVMGHSMGGGGSLEAAKSRTSLKAAIPLTGWNLDTTWPEVRTPTLVVGADGDTVAPVAAHSEPFYASLPGTLDKAYLELKGAVHRTPITANTTIAKYSVSWLKRFIDNDTRYERFLCPLPAPGPTIAEYRGNCPHT [TEP118]', 'purified protein yield per well', '<', 25),
  ('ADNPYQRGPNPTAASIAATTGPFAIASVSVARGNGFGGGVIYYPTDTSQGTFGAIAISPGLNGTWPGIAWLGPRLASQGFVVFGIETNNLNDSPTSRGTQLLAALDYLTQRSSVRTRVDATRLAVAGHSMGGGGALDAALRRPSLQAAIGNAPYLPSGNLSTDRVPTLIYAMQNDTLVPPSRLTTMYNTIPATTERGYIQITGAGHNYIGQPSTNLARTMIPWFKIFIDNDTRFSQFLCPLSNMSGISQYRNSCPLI [ESM159]', 'purified protein yield per well', '=', 371),
  ('QTNPYQKGPAPTVANLEAARGSFAVSSTSISSLSATGFGGGSLHYPTAAGTYGLIAVAPPYLAQSSSIAWLGPRLASHGFVVVMIDVNSTLDFPESRSRQQLAAIDYAIAQNARRTSPIYGKVDTTRRGVTGHSMGGGASILTARNSPANIKGAFPLTPWSSDKNFSNLQVPTGYLACQDDTVAGNADHSLNFYNRMPASTPKGYYELRGETHFCPQSTTNNPVIGKYLVAWMKRFVDNDTRFSPFLSGALPNADLSSGRFSVLRTSGL [DP075]', 'purified protein yield per well', '=', 33),
  ('FPAVVLAVSKQPHTDTRALTDEIKTALREIEPSLPAEITVNAELFQMKRFIDTGVWNVGEALAIGAVVVQPTGAGAQTGEFRKGPDPTEASVRASSGTFTTTTASVSSLVAGFGGGTIHYPTDTSQGTYGAIAFAPGFTASSASYSWIGPRIASQGFVVFLINTDSRYDFPASRATQLQNALNYLVNSSVAASRIDLNRLAVG [TEP030]', 'purified protein yield per well', '<', 25),
  ('APPVAGPYQRGPAPTEEVLVAARGPFAVTQTRMAAGQGTGAGTVHHPTDASQGTFGAVAVMPGFMGTEKSIRLYGPLLASHGFVVLTLSSVRRADFPDQRADQLLAALDRLVAGPAKGLIDAERLAVVGHSMGGGATLRAAARRPGLKAAVPLAPWHVRRDWRSVRVPTLIFGSENDRVAPVDKHAEPFYASLTRAPEKAYVELRDGGHLSFNTANPVIAKYTVSWLKRYVDDDVRYDPFLCPGPAFPSPTIREYRGTCPS [DP060]', 'purified protein yield per well', '<', 25),
  ('ASPYERGPDPTDSILEASRGPFATSQLSVSSLSVSGFGGGTVYYPTDTSQGTFGAIAISPGYTARWSSLAWLGPRIASHGFVVIGIETNTIYDQPASRGRQLLAALDYLTSSSPSTVRSRIDASRLAVAGHSMGGGGTLEAANDRPSLQAAVPLAPWNLTKIWSGVRVPTMIIGGEADTVAPVASHSEPFYQSIPSSVEKAYLELNNASHFFPQTTNTTMAKSMVAWLKRFVDDDTRYDQFLCPAPRGLAIQEYRDTCPIS [TEP144]', 'purified protein yield per well', '=', 32.6);
